Test system: 786-0 renal
test: NCI tumour cell line growth inhibition, 48 h
endpoint-label: TGI

# count of solved cases: 5
CC(=O)O[C@@H]1[C@H]2[C@@H](OC(=O)c3ccccc3)[C@@H](C)C[C@]2(O)[C@H](OC(C)=O)[C@@]2(C)[C@@H]3CC(C)(C)C(=O)[C@]3(OC(C)=O)C[C@@]12C :: > 25 µM
COc1cc(C[C@H]2C(=O)OC[C@@H]2Cc2ccc(OC)c(OC)c2)cc(OC)c1 :: > 100 µM
N#Cc1c(-c2ccc(Cl)cc2)c(C#N)c(=O)n(NS(=O)(=O)c2ccccc2)c1S :: 34.6 µM
O=C1c2cc3c(cc2CC12Cc1cc4c(cc1C2=O)CCC4)CCC3 :: > 100 µM
COc1cc2c3c(n(CCCNCC(OC)OC)c(=O)c2cc1OC)-c1cc2c(cc1C3=O)OCO2 :: 8.75 µM

Could I get TGI for every one of these entries?
1. CC1=CCC(OC(=O)C(C)(C)CCC(O)(C(=O)OC2(C(C)C)CCC3(C)OC3C2)C(C)C)(C(C)C)CC1 (centres undefined)
2. Nc1ccc(C(=O)NN2C(=O)C(Cl)C2c2cc(Br)ccc2O)cc1 (centres undefined)
3. O=C(Cn1cc(F)c(=O)[nH]c1=O)C12CC3CC(CC(C3)C1)C2

// result
["1.54 µM", "> 100 µM", "> 100 µM"]

Could I get TGI for every one of these entries?
1. COc1cc(Cn2c(=S)ss/c2=N\C(=S)N(C)C)cc(OC)c1OC
2. OCC1OC(Oc2cc(O)cc(/C=C/c3ccc(O)cc3)c2)C(O)C(O)C1O (centres undefined)
3. Cc1cccc2c(=O)c3c(O)cc(O)cc3[nH]c12
4. CN(C)CCNC(=O)c1ccc(C(=O)NCCN(C)C)c2nc3ccccc3cc12

// result
["> 91.3 µM", "> 100 µM", "> 10 µM", "13.8 µM"]

Could I get TGI for every one of these entries?
1. COc1cc(NCc2ccc3nc(-c4ccccc4)c(N)nc3c2)cc(OC)c1OC
2. O=C1/C(=C/c2ccc3c(c2)OCO3)CCC1CN1CCOCC1 (centres undefined)
3. C/C(=C\c1ccn(-c2ccc(N)c(F)c2)n1)[C@@H]1C[C@@H]2O[C@]2(C)CCC[C@H](C)[C@H](O)[C@@H](C)C(=O)C(C)(C)[C@@H](O)CC(=O)O1
4. COc1ccc(C(=O)/C=C/c2ccc(OCCSCCCCCCCCCCSCCOc3ccc(/C=C/C(=O)c4ccc(OC)cc4)cc3)cc2)cc1
5. CN(C(=O)c1ccc(Cl)cc1)C(=S)N1CCN(c2ccccn2)CC1

// result
1: > 100 µM; 2: 11.3 µM; 3: > 50 µM; 4: > 100 µM; 5: > 100 µM

Could I get TGI for every one of these entries?
1. c1ccc(-c2cs[s+]c2)cc1
2. CCCCn1cnnc1NS(=O)(=O)c1cc(C)c(Cl)cc1SCC(=O)O

// result
1. > 100 µM
2. > 10 µM

###

Test system: SK-MEL-28 melanoma
test: NCI tumour cell line growth inhibition, 48 h
endpoint-label: TGI

Could I get TGI for every one of these entries?
1. CC(=O)Oc1ccc2c(C)cc(=O)oc2c1
2. CCOC(=O)c1cc(C2CCN(CC(C)CC)C2=S)c(-c2cc(C)no2)[nH]1 (configuration not stated)

// result
["> 100 µM", "> 100 µM"]

Could I get TGI for every one of these entries?
1. O=c1[nH]c(=O)n(COCCO)c2ccc(Br)cc12
2. COc1ccn2c(C(C)=O)cc(C(=O)c3ccc4c(c3)Sc3ccccc3N4)c2c1
3. NC(=O)c1cc([N+](=O)[O-])c(Cl)c([N+](=O)[O-])c1
4. C=CCOc1ccc(/C(N=Nc2ccccc2)=N/NC(=O)c2ccccc2)cc1OC
5. c1cc(CSP234N5CCN2CCN3CCN4CC5)ccc1CSP123N4CCN1CCN2CCN3CC4

// result
["> 100 µM", "> 100 µM", "4.34 µM", "> 100 µM", "> 100 µM"]
